The reported measurements were obtained from PubChem BioAssay (NCATS).

target: Cytochrome P450 3A4 (Homo sapiens) (UniProt P08684); test: qHTS Assay for Inhibitors and Substrates of Cytochrome P450 3A4 (AID 884); conditions: recombinant CYP3A4, Luciferin-PPXE luminescence; series mostly up to 57.1 µM; also: nearly all actives have a fitted effect of over 50% in size
Sequence (P08684 whole entry, looked up): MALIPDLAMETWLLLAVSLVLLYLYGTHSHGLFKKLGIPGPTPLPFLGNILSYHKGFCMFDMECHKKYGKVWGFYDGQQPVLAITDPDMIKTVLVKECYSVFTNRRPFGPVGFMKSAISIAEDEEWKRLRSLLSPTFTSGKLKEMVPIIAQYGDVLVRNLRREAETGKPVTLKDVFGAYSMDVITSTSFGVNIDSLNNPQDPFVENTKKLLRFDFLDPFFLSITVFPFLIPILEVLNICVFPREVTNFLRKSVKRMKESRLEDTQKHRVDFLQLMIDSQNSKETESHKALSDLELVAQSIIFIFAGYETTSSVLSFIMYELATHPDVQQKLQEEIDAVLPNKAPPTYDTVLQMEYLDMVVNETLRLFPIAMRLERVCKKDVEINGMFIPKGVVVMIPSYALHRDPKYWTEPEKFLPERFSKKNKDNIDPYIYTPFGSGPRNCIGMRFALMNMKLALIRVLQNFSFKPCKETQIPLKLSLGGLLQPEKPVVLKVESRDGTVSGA
Results filed as inconclusive are left out. Calls of active or inactive are those of the source. Calls follow the shape of the dose curve; as a rule, active = well fitted inhibition curve with a large enough effect; inconclusive = small, poorly fitted or top-dose-only effect; inactive = no such curve, though single readings can be large or run the other way.
Output constraint: value belongs to active, inactive

- COMPOUND: "CC(=O)N[C@H](c1ccccc1)[C@@]1(C)C[C@@H]1[C@@H](C)C(=O)Nc1ccc2ccccc2c1"
  QUALITATIVE_LABEL: "active"

Ask: Hi, sorry to bother you, what did the test record for c1ccc2c(c1)ccc1cc3c(ccc4ccccc43)cc12 ?
Reply: inactive

Ask: GET /call?item= C=C1C(=O)C=C2CN(C(=O)c3ccccc3)[C@@](Cc3ccc(OC)cc3)(C(=O)OC)[C@@H]12 returns the recorded outcome of this test.
Reply: active

Ask: # outcome recorded in this test, key = COC(=O)[C@@]1(Cc2ccccc2)[C@@H]2C(=CC(=O)[C@H]2CC(=O)C(=O)N(C)C)CN1C(=O)c1ccccc1
Reply: active

Ask: Field: outcome | Entry: C[C@@H](C(=O)NCCc1c[nH]c2ccccc12)[C@@H]1C[C@@]1(C)[C@@H](NC(=O)OCc1ccccc1)c1ccccc1
Reply: active

Ask: Recorded call for COC(=O)[C@@]1(Cc2ccc(F)cc2)[C@@H]2[C@@H](CC(=O)[C@H]2CC(=O)C(=O)N(C)C)CN1C(=O)c1ccccc1 ?
Reply: active

Ask: How was CC1OC(OCC2OC(Oc3c(-c4ccc(OCCO)c(OCCO)c4)oc4cc(OCCO)cc(O)c4c3=O)C(O)C(O)C2O)[C@@H](O)C(O)C1O (stereo partly drawn) classified in this test?
Reply: inactive

Ask: Per the records of this test, what outcome belongs to COC(=O)[C@H]1C[C@@H]1[C@H](NC(=O)c1cc(C)nn1C)c1ccccc1 ?
Reply: active

###

tested on: CP268; test: qHTS profiling for inhibitors of Plasmodium falciparum proliferation (AID 504749); also: nearly all actives have a fitted effect of over 60% in size; details: P. falciparum in erythrocytes, SYBR Green DNA, 72 h; series mostly up to 28.7 µM
Records with an inconclusive call do not appear. Active and inactive are the calls of the source. The call rests on the fitted dose curve; in most records, active means well fitted inhibition curve with a large enough effect; inconclusive means small, poorly fitted or top-dose-only effect; inactive means flat fitted curve, though single readings scatter.
API: response.call in active, inactive

Use the examples below as a reference point.
- MOLECULE: "O=C(O)c1ccc(N[C@@H]2OC[C@@H](O)[C@@H](O)[C@@H]2O)cc1"
  QUALITATIVE_LABEL: "inactive"
- MOLECULE: "OCC(CO)NC1C[C@](O)(CO)[C@@H](O)[C@H](O)[C@H]1O (stereo partly drawn)"
  QUALITATIVE_LABEL: "inactive"
- MOLECULE: "CO/N=C(/C(=O)N[C@@H]1C(=O)N2C(C(=O)O)=C(CSc3nc(C)c(CC(=O)O)s3)CS[C@H]12)c1csc(N)n1"
  QUALITATIVE_LABEL: "inactive"
- MOLECULE: "CC1C(=O)C(=O)C=CN1C (stereo not drawn)"
  QUALITATIVE_LABEL: "inactive"
- MOLECULE: "CCCCC(=O)O[C@]1(C(=O)CO)CCC2C3CCC4=CC(=O)CCC4(C)C3C(O)CC21C (stereo partly drawn)"
  QUALITATIVE_LABEL: "inactive"

Ask: Give the logged outcome of this assay for the following molecule: CC(=O)NC[C@@H]1CN(c2ccc(N3CCOCC3)c(F)c2)C(=O)O1
Reply: inactive

Ask: Assay result, entry C/C=C\C[C@H](C)[C@H](O)[C@H]1C(=O)N[C@@H](CC)C(=O)N(C)CC(=O)N(C)[C@@H](CC(C)C)C(=O)N[C@@H](C(C)C)C(=O)N(C)[C@@H](CC(C)C)C(=O)N[C@@H](C)C(=O)N[C@@H](C)C(=O)N(C)[C@@H](CC(C)C)C(=O)N(C)[C@@H](CC(C)C)C(=O)N(C)[C@@H](C(C)C)C(=O)N1C — outcome?
Reply: active

Ask: Tell me the recorded outcome of this test for CCCSS/C(CCO)=C(/C)N(C=O)Cc1cnc(C)nc1N .
Reply: inactive

###

system: CP185; experiment: qHTS profiling for inhibitors of Plasmodium falciparum proliferation (AID 504749); also: nearly all actives have a fitted effect of over 60% in size; details: P. falciparum in erythrocytes, SYBR Green DNA, 72 h; series mostly up to 28.7 µM
Records with an inconclusive call do not appear. The source made the active and inactive calls. Calls come from the whole dose curve; as a rule, active = well fitted inhibition curve with a large enough effect; inconclusive = small, poorly fitted or top-dose-only effect; inactive = flat fitted curve, though single readings scatter.
Give one outcome, nothing more. List: active, inactive

Ask: Give the logged outcome of this assay for the following molecule: CC[C@H](C)[C@H]1O[C@]2(CC[C@@H]1C)C[C@@H]1C[C@@H](C/C=C(\C)[C@H](O[C@@H]3C[C@H](OC)[C@H](O[C@@H]4C[C@H](OC)[C@@H](O)[C@H](C)O4)[C@H](C)O3)[C@@H](C)/C=C/C=C3\CO[C@@H]4[C@H](O)C(C)=C[C@@H](C(=O)O1)[C@]34O)O2
Reply: active

Ask: // outcome(item) with item = CC(C)(C)NC[C@H](O)CSc1nc(-c2ccc(C(N)=O)s2)cs1
Reply: inactive

Ask: Write down the call the test reported for this molecule. Item: C[C@]12CC[C@@H]3c4ccc(O)cc4C[C@@H](CCCCCCCCCS(=O)CCCC(F)(F)C(F)(F)F)C3[C@@H]1CC[C@@H]2O (some centres undefined)
Reply: active

###

assay: Cellular Toxicity (caspase-3) NIH 3T3 (AID 666); conditions: NIH 3T3 caspase-3 activation, apoptosis/toxicity; series mostly up to 92.2 µM;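 also: caspase signal read after 16 h compound exposure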;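 as to caspase-3 activation: 0% = DMSO basal and 100% = 100 µM tamoxifen stimulation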
Inconclusive results are not listed. Active and inactive are the calls of the source. Calls come from the whole dose curve; as a rule, active = well fitted activation curve with a large enough effect; inconclusive = small, poorly fitted or top-dose-only effect, or effect the other way; inactive = flat fitted curve, though single readings scatter.
Return exactly one item of 1 (yes) = active, 0 (no) = inactive

Solved entries:
- MOLECULE: "c1ccc2c(c1)ccc1cc3c(ccc4ccccc43)cc12"
  QUALITATIVE_LABEL: "0 (no)"
- MOLECULE: "O=C(OCC(COC(=O)c1ccccc1)(COC(=O)c1ccccc1)COC(=O)c1ccccc1)c1ccccc1"
  QUALITATIVE_LABEL: "0 (no)"
- MOLECULE: "C/C=C1\\C(=O)C[C@H]2[C@@H]3CCC4=CC(=O)CC[C@]4(C)[C@H]3CC[C@]12C"
  QUALITATIVE_LABEL: "0 (no)"
- MOLECULE: "Cc1ccc(S(=O)(=O)Oc2ccc(N=Nc3ccc(-c4ccc(N=Nc5c(O)ccc6cc(S(=O)(=O)O)cc(S(=O)(=O)O)c56)c(C)c4)cc3C)cc2)cc1"
  QUALITATIVE_LABEL: "0 (no)"
- MOLECULE: "CCCCCCCC[N+](CCCCCCCC)(CCCCCCCC)CCCCCCCC"
  QUALITATIVE_LABEL: "1 (yes)"

Then this molecule:
Ask: What was the test verdict on O=C1OC(O)C(C(Cl)Cl)=C1Cl (stereo unspecified) ?
Reply: 0 (no)

###

system: CP211; assay: qHTS profiling for inhibitors of Plasmodium falciparum proliferation (AID 504749); also: nearly all actives have a fitted effect of over 60% in size; settings: P. falciparum in erythrocytes, SYBR Green DNA, 72 h; series mostly up to 28.7 µM
Inconclusive results are not listed. Calls of active or inactive are those of the source. Calls come from the whole dose curve; as a rule, active = well fitted inhibition curve with a large enough effect; inconclusive = small, poorly fitted or top-dose-only effect; inactive = flat fitted curve, though single readings scatter.
Use one of these outcomes when replying: Y = active, N = inactive

- COMPOUND: "OCC(CO)NC1C[C@](O)(CO)[C@@H](O)[C@H](O)[C@H]1O (stereo partly drawn)"
  SYSTEM_UNDER_TEST: "CP211"
  QUALITATIVE_LABEL: "N"
- COMPOUND: "CNC1C(O)C(OC2C(N)CC(N)C(OC3OC(CN)=CCC3N)C2O)OCC1(C)O (stereo not drawn)"
  SYSTEM_UNDER_TEST: "CP211"
  QUALITATIVE_LABEL: "N"
- COMPOUND: "CC1CN(c2c(F)c(N)c3c(=O)c(C(=O)O)cn(C4CC4)c3c2F)CC(C)N1 (stereo not drawn)"
  SYSTEM_UNDER_TEST: "CP211"
  QUALITATIVE_LABEL: "N"
- COMPOUND: "C/C=C\\C[C@H](C)[C@H](O)[C@H]1C(=O)N[C@@H](CC)C(=O)N(C)CC(=O)N(C)[C@@H](CC(C)C)C(=O)N[C@@H](C(C)C)C(=O)N(C)[C@@H](CC(C)C)C(=O)N[C@@H](C)C(=O)N[C@@H](C)C(=O)N(C)[C@@H](CC(C)C)C(=O)N(C)[C@@H](CC(C)C)C(=O)N(C)[C@@H](C(C)C)C(=O)N1C"
  SYSTEM_UNDER_TEST: "CP211"
  QUALITATIVE_LABEL: "Y"
- COMPOUND: "CC(=O)N[C@H]1[C@H](O[C@@H]2c3ccc(c(Cl)c3)Oc3cc4cc(c3O[C@@H]3O[C@H](CO)[C@@H](O)[C@H](O)C3C)Oc3ccc(cc3Cl)C[C@H]3NC(=O)[C@@H](N)c5ccc(O)c(c5)Oc5cc(O)cc(c5)[C@H](NC3=O)C(=O)N[C@H]4C(=O)N[C@H]3C(=O)N[C@@H]2C(=O)N[C@@H](C(=O)O)c2cc(O)cc(O[C@H]4O[C@H](CO)[C@@H](O)C(O)[C@@H]4O)c2-c2cc3ccc2O)O[C@H](CO)[C@@H](O)[C@@H]1O (stereo partly drawn)"
  SYSTEM_UNDER_TEST: "CP211"
  QUALITATIVE_LABEL: "N"

Ask: # outcome recorded in this test, key = C=CC1CN2CCC1CC2[C@@H](O)c1ccnc2ccc(OC)cc12 (stereo partly drawn)
Reply: Y

Ask: Tell me the recorded outcome of this test for CC(O)C1CCC2C3CCC4CC(O)CCC4(C)C3CCC12C (stereo not drawn) .
Reply: N

Ask: # outcome recorded in this test, key = O=C(O)Cc1sc(-c2ccc(Cl)cc2)nc1-c1ccccc1
Reply: N

Ask: Hello, I am checking results. What call was entered for C/C1=C2/[N-]C(C(CC(N)=O)[C@@]2(C)CCC(=O)NCC(C)OP(=O)([O-])O[C@H]2[C@@H](O)[C@@H](n3cnc4cc(C)c(C)cc43)O[C@@H]2CO)[C@]2(C)N=C(/C(C)=C3N=C(/C=C4N=C1C(CCC(N)=O)C\4(C)C)[C@@H](CCC(N)=O)[C@]\3(C)CC(N)=O)[C@@H](CCC(N)=O)[C@]2(C)CC(N)=O.CC(=O)O.[Co] (stereo partly drawn) ?
Reply: N

Ask: Recorded test outcome, item C/C(=C(/CCO)SS/C(CCO)=C(\C)N(C=O)Cc1cnc(C)nc1N)N(C=O)Cc1cnc(C)nc1N
Reply: N

Ask: // outcome(item) with item = CN(C)CC/C=C1\c2ccccc2COc2ccc(CC(=O)O)cc21
Reply: N

Ask: What outcome does the record of this test show for CC1OC(OCC2OC(Oc3c(-c4ccc(OCCO)c(OCCO)c4)oc4cc(OCCO)cc(O)c4c3=O)C(O)C(O)C2O)[C@@H](O)C(O)C1O (stereo partly drawn) ?
Reply: N

Ask: Per the records of this test, what outcome belongs to CC(=O)NC[C@@H]1CN(c2ccc(N3CCOCC3)c(F)c2)C(=O)O1 ?
Reply: N
